Just for reference, PubChem BioAssay (NCATS) is where these values come from.

system: Nanoluciferase (engineered Oplophorus gracilirostris luciferase); test: Primary Nanoluciferase (NLuc) qHTS assay for identification of artifact compounds. (AID 1845222); settings: NLuc-conditioned medium, Nano-Glo luminescence, 5 min; series mostly up to 54.1 µM;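 also: NLuc secreted into diluted conditioned medium of S16 cells; 0% = DMSO and -100% = no enzyme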
Active and inactive are the calls of the source. Calls follow the shape of the dose curve; as a rule, active = well fitted inhibition curve with a large enough effect; inconclusive = small, poorly fitted or top-dose-only effect; inactive = flat fitted curve, though single readings scatter.

Compound | Tested System | activity, negative = inhibition
Cc1ccc(NC(=O)c2ccc(CN3CCN(C)CC3)cc2)cc1Nc1nccc(-c2cccnc2)n1 | Nanoluciferase (engineered Oplophorus gracilirostris luciferase) | inactive
COc1ccccc1N1CCN(CCN(C(=O)C2CCCCC2)c2ccccn2)CC1 | Nanoluciferase (engineered Oplophorus gracilirostris luciferase) | inactive
CCN(CCO)CCCC(C)Nc1ccnc2cc(Cl)ccc12 (stereo not given) | Nanoluciferase (engineered Oplophorus gracilirostris luciferase) | -2.86% [at 6.45 µM] (inactive)
COc1c(O)cc2c(c1O)[C@@H]1O[C@H](CO)[C@@H](O)[C@H](O)[C@H]1OC2=O | Nanoluciferase (engineered Oplophorus gracilirostris luciferase) | inactive
COc1cc2c(N3CCN(C(=O)Nc4ccc(OC(C)C)cc4)CC3)ncnc2cc1OCCCN1CCCCC1 | Nanoluciferase (engineered Oplophorus gracilirostris luciferase) | inactive

---

Assay: Quantitative High-Throughput drug screen in 47 multiple myeloma cell lines against the NCATS MIPE library collection: KMS26_JCRB cell viability assay (AID 1918975); also: nearly all actives have a fitted effect of over 45% in size
Conditions: KMS26 myeloma cells viability, CellTiter-Glo ATP, 48 h; series mostly up to 45.8 µM
Source text: PI: Beverly A. Mock Ph.D. Laboratory of Cancer Biology and Genetics, Center for Cancer Research, National Cancer Institute, National Institute of Health, Bethesda, Maryland […] 5; Detector; 425V; Luminescence; Viewlux PerkinElmer. […] 1. […] Briefly, the corresponding myeloma cell lines were screened in 1,536-well plates with 500 cells, 5-uL per well for inhibition of cell viability (assessed by measuring ATP levels with CellTiterGlo). […]
Results filed as inconclusive are left out. The source made the active and inactive calls. The call rests on the fitted dose curve; in most records, active means well fitted cell-killing curve with a large enough effect; inconclusive means small, poorly fitted or top-dose-only effect, or effect the other way; inactive means no such curve, though single readings can be large or run the other way.
Labels: T = active, F = inactive

Molecule | Classification
S=c1nc[nH]c2nc[nH]c12 | T
O=C(O)c1cn(-c2ccc(F)cc2)c2cc(N3CCNCC3)c(F)cc2c1=O | F
CC(=O)O[C@H]1C(=O)[C@@]2(C)C([C@H](OC(=O)c3ccccc3)[C@]3(O)C[C@H](OC(=O)[C@H](O)[C@@H](NC(=O)c4ccccc4)c4ccccc4)C(C)=C1C3(C)C)[C@]1(OC(C)=O)CO[C@@H]1C[C@@H]2O (some centres not stated) | F
O=C(c1ccccc1)c1ccc2n1CCC2C(=O)O (configuration not stated) | T
Nc1ccc(S(N)(=O)=O)cc1 | F
CCCCC(CC)COC(=O)C(C#N)=C(c1ccccc1)c1ccccc1 (configuration not stated) | F
O=Nc1c(-c2c(O)[nH]c3cc(Br)ccc23)[nH]c2ccccc12 | T
CCN(CCO)CCCC(C)Nc1ccnc2cc(Cl)ccc12 (configuration not stated) | F
CC(=O)NC[C@H]1CN(c2ccc(N3CCOCC3)c(F)c2)C(=O)O1 | F
Cc1cc(O)c2c(c1)C(=O)c1cc(O)cc(O)c1C2=O | T
Cc1cc(=O)c2c(O)c3c(O)cc(=O)c4c3c3c(cc(O)c1c23)C(C)(C)C=4O | T
C[C@H](Cc1ccc(O)c(O)c1)[C@@H](C)Cc1ccc(O)c(O)c1 | T
CNC[C@@H](O)[C@@H](O)[C@H](O)[C@H](O)CO | F
COc1c2occc2cc2ccc(=O)oc12 | F
CC(C)(S)[C@@H](N)C(=O)O | F
Clc1ccc(C(Cn2ccnc2)OCc2ccsc2Cl)c(Cl)c1 (configuration not stated) | F
CCC[C@@H]1C[C@@H](C(=O)N[C@@H]([C@H]2O[C@H](SC)[C@H](O)[C@@H](O)[C@H]2O)[C@@H](C)O)N(C)C1 | F
NCCCCNCCCN | T
Nc1cc(C(Cl)=C(Cl)Cl)c(S(N)(=O)=O)cc1S(N)(=O)=O | F
CCCS(=O)c1ccc2nc(NC(=O)OC)[nH]c2c1 (configuration not stated) | T
CCCCN(CCCC)CCC(O)c1cc2c(Cl)cc(Cl)cc2c2cc(C(F)(F)F)ccc12 (configuration not stated) | F
CCCOc1ccc2nc(NC(=O)OC)[nH]c2c1 | T
